Where these numbers come from: the supplement of paper PMC9233669

- Tested on: biotinyl-Trp-oxazolone
- Test summary: self-aminoacylation, catalytic enhancement (BWO) (fold over background); higher = more active; k-Seq, kA / k0A0; sequences stand for … in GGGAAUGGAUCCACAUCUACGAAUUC…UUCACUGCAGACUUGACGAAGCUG
Fewer inactive variants are shown than the library holds.
Measured property: self-aminoacylation

                            ordered_residues    measured_property  assay_result
 0  CCACACUUCAAGCUAUGGGUC [Fam1B.1 aminoacylation ribozyme variant]  self-aminoacylation         0.724
 1  CCACACUCCUAGCAAUCGGUC [Fam1B.1 aminoacylation ribozyme variant]  self-aminoacylation         0.519
 2  ACACACUUCAAGCAACCGGUC [Fam1B.1 aminoacylation ribozyme variant]  self-aminoacylation          1.13
 3  AUAACCCUAGUCAUCGAGUGA [Fam2.1 aminoacylation ribozyme variant]  self-aminoacylation          6.64
 4  AUUACACUGGUCAUCGAGUGC [Fam2.1 aminoacylation ribozyme variant]  self-aminoacylation          1.56
 5  CCCCAGUUCAAGCAAUCGGUC [Fam1B.1 aminoacylation ribozyme variant]  self-aminoacylation          7.44
 6  CUACUUCAAACAAUCGGACAG [Fam1A.1 aminoacylation ribozyme variant]  self-aminoacylation         0.656
 7  CCACACAUCAAGCAGUCGGUC [Fam1B.1 aminoacylation ribozyme variant]  self-aminoacylation         0.457
 8  AUUACCCUGGUAAUCGAGGGA [Fam2.1 aminoacylation ribozyme variant]  self-aminoacylation         0.832
 9  AAGUUUGCUAACAGUCGCACG [Fam3.1 aminoacylation ribozyme variant]  self-aminoacylation         0.973
10  CCACACUCCAAGAAAUCGGUC [Fam1B.1 aminoacylation ribozyme variant]  self-aminoacylation             1
11  AUUACCCUAGUCAUCGAGUGA [Fam2.1 aminoacylation ribozyme variant]  self-aminoacylation           6.3
12  AUCACCCUGGUCAUAGAGUGA [Fam2.1 aminoacylation ribozyme variant]  self-aminoacylation          13.2
13  UUUCACCUAGGGCAUCGGGUG [Fam2.2 aminoacylation ribozyme variant]  self-aminoacylation          3.56
14  CCACACUUCAAUGAAUCGGUC [Fam1B.1 aminoacylation ribozyme variant]  self-aminoacylation          10.3
15  AUUCACAUAGGUCAUCGGGUG [Fam2.2 aminoacylation ribozyme variant]  self-aminoacylation          7.83
16  AAGUUUGCUAAUAGUGGCAAC [Fam3.1 aminoacylation ribozyme variant]  self-aminoacylation         0.575
17  AUUCACCUAUGUCAUCGAGUG [Fam2.2 aminoacylation ribozyme variant]  self-aminoacylation          4.95

* * *

- System: biotinyl-Leu-oxazolone
- Test summary: self-aminoacylation, catalytic enhancement (BLO) (fold over background); higher = more active; k-Seq, kA / k0A0; sequences stand for … in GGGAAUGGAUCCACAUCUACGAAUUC…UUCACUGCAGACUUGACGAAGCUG
Variants at the floor of the assay were thinned out.
Measured property: self-aminoacylation

                            ordered_residues  assay_result
 0  AUGACGCUGGUCAUCGAGUGA [Fam2.1 aminoacylation ribozyme variant]           5.8
 1  AUUCACCUAGGUCAUUGGGCG [Fam2.2 aminoacylation ribozyme variant]          3.36
 2  AAGUUUGCUAAUAUCCGCAAG [Fam3.1 aminoacylation ribozyme variant]         0.845
 3  CCACACUACAAACAAUCGGUC [Fam1B.1 aminoacylation ribozyme variant]         0.652
 4  CCACACUUCAAGUAUUCGGUC [Fam1B.1 aminoacylation ribozyme variant]          1.39
 5  AUUACCUUGGUCAUUGAGUGA [Fam2.1 aminoacylation ribozyme variant]          7.89
 6  AUAACCCUGGUAAUCGAGUGA [Fam2.1 aminoacylation ribozyme variant]          8.57
 7  AUUACCCUGGUCAUUUAGUGA [Fam2.1 aminoacylation ribozyme variant]          11.1
 8  AUACACCUAGGUCAUCGGGUG [Fam2.2 aminoacylation ribozyme variant]          3.88
 9  AUUCUCCUGGUCAUCGAGUGA [Fam2.1 aminoacylation ribozyme variant]           6.5
10  GCACACUUCUAGCAAUCGGUC [Fam1B.1 aminoacylation ribozyme variant]         0.999
11  CUACAUCAACCAAUCGGUCUG [Fam1A.1 aminoacylation ribozyme variant]         0.554
12  CCACACUUCAAGCGAUCGGUU [Fam1B.1 aminoacylation ribozyme variant]          1.53
13  AAGUUUGCUGUUAGUCGCAAG [Fam3.1 aminoacylation ribozyme variant]         0.912
14  CUACUUCGGACAAUCGGUCUG [Fam1A.1 aminoacylation ribozyme variant]         0.867
15  CUUCACCUAGGCCAUCGGGUG [Fam2.2 aminoacylation ribozyme variant]          4.08
16  CUUGCCCUGGUCAUCGAGUGA [Fam2.1 aminoacylation ribozyme variant]          14.7
17  AUUACCUUGGACAUCGAGUGA [Fam2.1 aminoacylation ribozyme variant]          6.08
18  AAGUUUGCUAAUUGGCGCAAG [Fam3.1 aminoacylation ribozyme variant]           1.1
19  CCACAUUUCCAGCAAUCGGUC [Fam1B.1 aminoacylation ribozyme variant]          2.15
20  CUACUUGAGACAAUCGGUCUG [Fam1A.1 aminoacylation ribozyme variant]         0.962
21  AUAACCAUGGUCAUCGAGUGA [Fam2.1 aminoacylation ribozyme variant]          7.68
22  AUCCACCUCGGUCAUCGGGUG [Fam2.2 aminoacylation ribozyme variant]          7.66
23  AAGUUUGCUACUAGCCGCAAG [Fam3.1 aminoacylation ribozyme variant]          0.51
24  CUACUUAAAACAAGCGGUCUG [Fam1A.1 aminoacylation ribozyme variant]         0.836
25  AUUCACCCAGGUAAUCGGGUG [Fam2.2 aminoacylation ribozyme variant]          3.88
26  AUUCACCUCGGUCAUCCGGUG [Fam2.2 aminoacylation ribozyme variant]            14
27  ACACACUUCAAGCAAUCGGGC [Fam1B.1 aminoacylation ribozyme variant]          2.34
28  AUUACCCUGGUCCUCGCGUGA [Fam2.1 aminoacylation ribozyme variant]          15.1
29  AUUACACUGGUUAUCGAGUGA [Fam2.1 aminoacylation ribozyme variant]          8.73
30  CUUACCCUCGUCAUCGAGUGA [Fam2.1 aminoacylation ribozyme variant]          2.47
31  AUUACACUGGUCACCGAGUGA [Fam2.1 aminoacylation ribozyme variant]          5.41
32  AAGUUUGCUAAUAGUCGCAAU [Fam3.1 aminoacylation ribozyme variant]          1.19
33  CAACACUUCAAGCAAUCGGUU [Fam1B.1 aminoacylation ribozyme variant]          1.76
34  AAGUUUGGUAAUCGUCGCAAG [Fam3.1 aminoacylation ribozyme variant]          1.33
